Test system: SEM cells
PROTOCOL NOTES: cell viability relative to DMSO control; higher = less cytotoxic
PARTICULARS: RPMI 5 mM glucose + 10% dialyzed FBS; 48 h; 15.4 µM
QUANTITY MEASURED: cell viability (%)
Hi! Could you send only the number? It should be in %, unit omitted.

Record excerpt, results attached:
[
  {
    "MOLECULE": "CC[C@H](NC1=C2N=C[NH]C2=NC=N1)C/3=N/C4=C(C(=CC=C4)F)C(=O)N3C5=CC=CC=C5",
    "QUANTITY MEASURED": "cell viability",
    "VAL": 80.1
  },
  {
    "MOLECULE": "NC1=C(Cl)C(=CC=N1)OC2=C(F)C=C(NC(=O)\\C3=C\\N\\C=C(C3=O)\\C4=CC=C(F)C=C4)C=C2",
    "QUANTITY MEASURED": "cell viability",
    "VAL": 58.5
  },
  {
    "MOLECULE": "CCN(CC)CCOc1ccc(/C(=C(\\Cl)c2ccccc2)c2ccccc2)cc1",
    "QUANTITY MEASURED": "cell viability",
    "VAL": 126
  }
]

The molecule identified as Cc1nn(Cc2ccccc2Cl)c(C)c1CN(C)CC(O)COc1ccc(Cl)cc1 (centres undefined) registered its cell viability at 39.2

====

System: P12-Ichikawa
PROTOCOL NOTES: cell viability relative to DMSO control; higher = less cytotoxic
PARTICULARS: RPMI 5 mM glucose + 10% dialyzed FBS; 48 h; 0.19 µM
Below, each entry is listed alongside its reported cell viability.
Hi! Could you send only the number? It should be in %, unit omitted.

Record excerpt, results attached:
[
  {
    "COMPOUND STRUCTURE STRING": "CNc1nc(Nc2ccc(C(=O)N3CCOCC3)cc2OC)ncc1Cl",
    "VAL": 125
  },
  {
    "COMPOUND STRUCTURE STRING": "O=C(O)Cn1nnc(-c2cc(N3CCC(Oc4cc(F)ccc4Br)CC3)no2)n1",
    "VAL": 116
  }
]

The compound identified as FC1=C(C=C(C\C2=N\NC(=O)C3=C2C=CC=C3)C=C1)C(=O)N4CCN(CC4)C(=O)C5CC5 registered its cell viability at 93.2

The compound identified as FC1=CC=C(C=C1)N2/C=C\C=C(C(=O)NC3=CC=C(OC4=C5C=C[NH]C5=NC=C4)C(=C3)F)/C2=O registered its cell viability at 124

The compound identified as C[C@]12CC[C@H]3[C@@H](CC[C@H]4NC(=O)\C=C/[C@]34C)[C@@H]1CC[C@@H]2C(=O)NC5=CC(=CC=C5C(F)(F)F)C(F)(F)F registered its cell viability at 99.2

The compound identified as O=c1[nH]c(=O)n([C@H]2C[C@H](O)[C@@H](CO)O2)cc1/C=C/Br registered its cell viability at 106

The compound identified as S=C(NCc1ccc2c(c1)OCO2)N1CCN(c2ncnc3c2oc2ccccc23)CC1 registered its cell viability at 108

The compound identified as CC[C@H](/C=C/[C@@H](C)[C@H]1CC[C@H]2[C@@H]3CC=C4C[C@@H](O)CC[C@]4(C)[C@H]3CC[C@]12C)C(C)C registered its cell viability at 94.6

====

Tested on: NOMO1
PROTOCOL NOTES: cell viability relative to DMSO control; higher = less cytotoxic
PARTICULARS: RPMI 5 mM glucose + 10% FBS; 48 h; 1.71 µM
QUANTITY MEASURED: cell viability (%)
Hi! Could you send only the number? It should be in %, unit omitted.

Record excerpt, results attached:
[
  {
    "COMPOUND": "O=C1[C@H](Cc2ccc(O)cc2)N2C(=O)CCN(C(=O)NCc3ccccc3)[C@H]2CN1Cc1cccc2ccccc12",
    "ASSAY SYSTEM": "NOMO1",
    "cell viability, %": 73.5
  },
  {
    "COMPOUND": "COc1cc(OC2CCN(C)CC2)ccc1Nc1ncc2c(n1)n(C1CCCC1)c(=O)n2C",
    "ASSAY SYSTEM": "NOMO1",
    "cell viability, %": 76.5
  },
  {
    "COMPOUND": "OC[C@H]1O[C@H]([C@H](O)[C@@H]1O)N2\\C=C/C(=O)NC2=O",
    "ASSAY SYSTEM": "NOMO1",
    "cell viability, %": 91.4
  },
  {
    "COMPOUND": "Cc1nn(Cc2ccccc2Cl)c(C)c1CN(C)CC(O)COc1ccc(Cl)cc1 (stereo not drawn)",
    "ASSAY SYSTEM": "NOMO1",
    "cell viability, %": 93.7
  },
  {
    "COMPOUND": "O=C(O)C1(Cc2cccc(Nc3nccs3)n2)CCC(Oc2cccc(Cl)c2F)CC1 (stereo not drawn)",
    "ASSAY SYSTEM": "NOMO1",
    "cell viability, %": 74.1
  },
  {
    "COMPOUND": "O=C(O)Cn1nnc(-c2cc(N3CCC(Oc4cc(F)ccc4Br)CC3)no2)n1",
    "ASSAY SYSTEM": "NOMO1",
    "cell viability, %": 22.9
  }
]

The compound identified as CC(C)C1NC(=O)C(NC(=O)C2=C3\N=C\4/C(=C(C)\C(=O)\C(=C4C(=O)NC5C(C)OC(=O)C(C(C)C)N(C)C(=O)CN(C)C(=O)C6CCCN6C(=O)C(NC5=O)C(C)C)N)OC3=C(C)C=C2)C(C)OC(=O)C(C(C)C)N(C)C(=O)CN(C)C(=O)C7CCCN7C1=O (stereo not drawn) registered its cell viability at 6.58

The compound identified as CC(C)(C#N)c1cc(Cn2cncn2)cc(C(C)(C)C#N)c1 registered its cell viability at 114

====

Below, each entry is listed alongside its reported cell viability.
Test system: P12-Ichikawa
PROTOCOL NOTES: cell viability relative to DMSO control; higher = less cytotoxic
PARTICULARS: RPMI 5 mM glucose + 10% FBS; 48 h; 0.569 µM
Hi! Could you send only the number? It should be in %, unit omitted.

Record excerpt, results attached:
[
  {
    "MOLECULE": "C[C@@H]1COCCN1c1cc(C2([S@+](C)(=N)[O-])CC2)nc(-c2ccnc3[nH]ccc23)n1",
    "cell viability [%]": 104
  },
  {
    "MOLECULE": "CN1CCN(C2=Nc3cc(Cl)ccc3Nc3ccccc32)CC1",
    "cell viability [%]": 107
  },
  {
    "MOLECULE": "Cc1coc2c1C(=O)C(=O)c1c-2ccc2c(C)cccc12",
    "cell viability [%]": 114
  },
  {
    "MOLECULE": "C[C@@H](Oc1cc(-c2cnn(C3CCNCC3)c2)cnc1N)c1c(Cl)ccc(F)c1Cl",
    "cell viability [%]": 115
  },
  {
    "MOLECULE": "N[S+]([O-])(=O)C1=CC=C(NC/2=C/C(=O)C3=CC=CC=C3C2=O)C=C1",
    "cell viability [%]": 125
  },
  {
    "MOLECULE": "COc1ccccc1OCC(O)COC(N)=O (centres undefined)",
    "cell viability [%]": 124
  },
  {
    "MOLECULE": "Cc1c(C)n(Cc2ccc(-c3ccccc3C(=O)O)cc2)c2ccc(C(=O)N[C@@H](C)c3ccc([N+](=O)[O-])cc3)cc12",
    "cell viability [%]": 114
  },
  {
    "MOLECULE": "C[C@]12CCC(=O)C=C1CC[C@@H]1[C@@H]2[C@@H](O)C[C@@]2(C)[C@H]1CC[C@]2(O)C(=O)CO",
    "cell viability [%]": 104
  }
]

Kindly consider the entry below.
Lab entry: P12-Ichikawa assay, molecule C[C@]12COC(=O)C[C@@H]1CC[C@@H]1[C@@H]2CC[C@@]2(C)[C@H]1CC[C@]2(C)O , cell viability = 113

====

Tested on: NOMO1
PROTOCOL NOTES: cell viability relative to DMSO control; higher = less cytotoxic
PARTICULARS: HPLM + 10% dialyzed FBS; 48 h; 15.4 µM
QUANTITY MEASURED: cell viability
Just so you know, I need the unit written after the number.

Record excerpt, results attached:
[
  {
    "COMPOUND": "O=C(O)C1(Cc2cccc(Nc3nccs3)n2)CCC(Oc2cccc(Cl)c2F)CC1 (stereo not drawn)",
    "cell viability": "34.2%"
  },
  {
    "COMPOUND": "CCOC(=O)N1CCN(/[N+]([O-])=N/Oc2ccc([N+](=O)[O-])cc2C#N)CC1",
    "cell viability": "39.6%"
  },
  {
    "COMPOUND": "CCOC(=O)[C@@H](N)Cc1ccc(-c2cc(O[C@H](c3ccc(Cl)cc3-n3ccc(C)n3)C(F)(F)F)nc(N)n2)cc1.O=C(O)CNC(=O)c1ccccc1",
    "cell viability": "102%"
  }
]

Lab entry: NOMO1 assay, compound NC\1=N\C(=O)N(\C=C1)[C@@H]2O[C@H](CO)[C@@H](O)[C@@H]2O , cell viability = 20%

// provenance: the supplement of paper PMC11451515
